Test system: Panc 05.04 cells (pancreatic cancer cells; Q699H and K700E mutations in SF3B1)
Assay: Cell viability assay (CellTiter-Glo, 72 hr), Panc 05.04 cells
Assay type: cell-based
Conditions: Panc 05.04 cells (mutant SF3B1); maximum achievable response in tested dose range, negative value = cellular lethality; read-out: Panc 05.04 (mt SF3B1 cells) Emax (%)
Entries and their measured Emax follow.

Some solved entries appear below for comparison.
Molecule	Emax
C/C(=C\C=C\C(C)c1cccnn1)[C@H]1OC(=O)C[C@H](O)CC[C@@](C)(O)[C@@H](OC(=O)N2CCN(C3CCCCCC3)CC2)/C=C/[C@@H]1C (stereo partly drawn)	-94.7%
C/C(=C\C=C\[C@@H](C)COC(=O)N1CCCC1)[C@H]1OC(=O)C[C@@H](O)CC[C@](C)(O)[C@@H](OC(=O)N2CCN(C)CC2)/C=C/[C@@H]1C	-90.2%
C/C(=C\C=C\[C@@H](C)COC(=O)N1CCCC1)[C@H]1OC(=O)CCCC[C@@](C)(O)[C@@H](OC(=O)N2CCN(C)CC2)/C=C/[C@@H]1C	-91.4%
CC(=O)O[C@H]1/C=C/[C@H](C)[C@@H](/C(C)=C/C=C/[C@@H](C)COC(=O)N2CCN(C)CC2)OC(=O)C[C@H](O)CC[C@@]1(C)O	-88.8%
CC[C@H](O)[C@@H](C)[C@H]1O[C@@H]1C[C@@](C)(O)/C=C/C=C(\C)[C@H]1OC(=O)C[C@H](O)CC[C@@](C)(OC(=O)N2CCNCC2)[C@@H](OC(C)=O)/C=C/[C@@H]1C	-74.2%

INPUT: Item C/C(=C\C=C\[C@H](C)c1cccnc1)[C@H]1OC(=O)C[C@H](O)CC[C@@](C)(O)[C@@H](OC(=O)N2CCN(C3CCCCCC3)CC2)/C=C/[C@@H]1C has what recorded Emax?
OUTPUT: -94.2%

INPUT: // same read-out, input: C/C(=C\C=C\[C@@H](C)COC(=O)N1CCCC1)[C@H]1OC(=O)CCCCC[C@@H](OC(=O)N(C)C)/C=C/[C@@H]1C
OUTPUT: -94.8%
